Examples of compounds with documented IC50 follow.
Tested on: SK-BR-3
Assay: Cytotoxicity against human SKBR3 cells after 72 hrs by celltiter-Glo assay
Assay type: functional, cell-based
Details: SK-BR-3, 72 h
A number alone suffices; assume nM.

Solved cases (2 shown):
[[record]]
smilesrepr = "COC1=C2C[C@@H](C)C[C@H](OC)[C@H](O)[C@@H](C)/C=C/[C@H](OC(N)=O)[C@@H](OC)[C@@H]3O[C@@H]3/C=C(\\C)C(=O)NC(=CC1=O)C2=O"
measurename = "IC50"
assayresult = 280

[[record]]
smilesrepr = "COC1=C2C[C@@H](C)C[C@H](OC)[C@H](O)[C@@H](C)/C=C/[C@H](OC(N)=O)[C@@H](OC)/C=C\\C=C(/C)C(=O)NC(=CC1=O)C2=O"
measurename = "IC50"
assayresult = 481


Turning to the following compound.
Req: I would be grateful if you could share the reported IC50 for C=CCNC1=C2C[C@@H](C)C[C@H](OC)[C@H](O)[C@@H](C)/C=C(\C)[C@H](OC(N)=O)[C@@H](OC)/C=C\C=C(/C)C(=O)NC(=CC1=O)C2=O .
Resp: 27
